Sequence of the target: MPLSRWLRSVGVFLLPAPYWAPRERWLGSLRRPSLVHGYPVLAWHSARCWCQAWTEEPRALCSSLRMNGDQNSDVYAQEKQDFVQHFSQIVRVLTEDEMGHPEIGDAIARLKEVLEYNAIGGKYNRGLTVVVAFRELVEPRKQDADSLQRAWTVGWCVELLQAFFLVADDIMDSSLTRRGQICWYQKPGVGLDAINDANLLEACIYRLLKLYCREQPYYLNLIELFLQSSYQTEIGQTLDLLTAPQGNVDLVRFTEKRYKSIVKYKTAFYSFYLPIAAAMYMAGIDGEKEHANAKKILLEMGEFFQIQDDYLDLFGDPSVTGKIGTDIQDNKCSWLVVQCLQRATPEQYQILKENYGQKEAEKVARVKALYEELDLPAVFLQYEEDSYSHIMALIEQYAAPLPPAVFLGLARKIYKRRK

smilesInput | IC50
NC(=O)c1cc(NC(=O)c2ccc(C(=O)Nc3cc(C(N)=O)cc(C4=NCCN4)c3)cc2)cc(C2=NCCN2)c1 | 10.7 µM
Nc1cc(C(=O)Nc2cccc(C3=NCCN3)c2)ccc1C(=O)Nc1cccc(C2=NCCN2)c1 | 21 µM
Nc1cc(C(=O)Nc2ccc(C3=NCCN3)cc2)ccc1C(=O)Nc1ccc(C2=NCCN2)cc1 | 20.3 µM
O=C(Nc1ccccc1C1=NCCN1)c1ccc(C(=O)Nc2ccccc2C2=NCCN2)cc1 | 7 µM
Nc1c(C(=O)Nc2ccc(C3=NCCN3)cc2)cccc1C(=O)Nc1ccc(C2=NCCN2)cc1 | 22.3 µM

Origin of values: BindingDB's records for doi:10.1111/cbdd.12121
